Biological target: T1, CRBN, Q96SW2;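 note: pooled lentiviral library of zinc finger degron-EGFP fusions in mCherry-positive Jurkat cells, FACS-sorted after compound exposure, with degron abundance counted by next-generation sequencing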
T1 chain: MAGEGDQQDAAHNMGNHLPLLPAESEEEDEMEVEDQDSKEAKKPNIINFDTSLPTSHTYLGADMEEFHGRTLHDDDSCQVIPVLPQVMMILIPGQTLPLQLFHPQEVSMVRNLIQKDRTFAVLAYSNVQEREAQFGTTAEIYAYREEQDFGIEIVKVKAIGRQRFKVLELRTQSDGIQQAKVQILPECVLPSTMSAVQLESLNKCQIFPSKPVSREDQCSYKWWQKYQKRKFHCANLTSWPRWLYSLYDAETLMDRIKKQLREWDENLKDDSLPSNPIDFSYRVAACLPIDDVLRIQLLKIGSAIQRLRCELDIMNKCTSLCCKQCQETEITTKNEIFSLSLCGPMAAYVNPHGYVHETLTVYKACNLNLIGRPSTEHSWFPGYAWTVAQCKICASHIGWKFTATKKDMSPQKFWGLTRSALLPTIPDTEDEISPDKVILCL
Assay: log2 fold change of degron read counts, EGFP-low vs EGFP+ sorted cells (limma voom), compound-induced degradation; higher = more compound-induced degradation of the degron-EGFP fusion; degrons are variants of IKZF1/3 zinc finger 2; compound dose not given here
Settings: Jurkat; 18 h; compound: compound 33 (diphenyl IMiD analogue)
Whole data set: some 8,300 sequences, median “log2 fold change of degron read counts, EGFP-low vs EGFP+ sorted cells (limma voom), compound-induced degradation” near -1.1, cut for the highest 2% near 3.2. The full list was thinned out, with the highest values kept by preference.
Observation type: log2 fold change of degron read counts

# Sequence content, Observation type, Measurement
data = [
    ("FYCPICGAHFTQKGNLLRHIKL [46F_47Y_49P_50I_52G_53A_54H_55F_67L_, Q9UKT9]", "log2 fold change of degron read counts", 2.1),
    ("FGCPICGAHFTQKGNLLRHIKL [46F_47G_49P_50I_52G_53A_54H_55F_67L_, Q9UKT9]", "log2 fold change of degron read counts", 1.51),
    ("FACPICGAHFTQKGNLLRHIKL [46F_47A_49P_50I_52G_53A_54H_55F_67L_, Q9UKT9]", "log2 fold change of degron read counts", 0.948),
    ("FSCPICGAHFTQKGNLLRHIKL [46F_47S_49P_50I_52G_53A_54H_55F_67L_, Q9UKT9]", "log2 fold change of degron read counts", 1.5),
    ("FCCPICGAHFTQKGNLLRHIKL [46F_47C_49P_50I_52G_53A_54H_55F_67L_, Q9UKT9]", "log2 fold change of degron read counts", 1.85),
    ("FVCPICGAHFTQKGNLLRHIKL [46F_47V_49P_50I_52G_53A_54H_55F_67L_, Q9UKT9]", "log2 fold change of degron read counts", 1.37),
    ("FQCPICGAHFTQKGNLLRHIKL [46F_47Q_49P_50I_52G_53A_54H_55F_67L_, Q9UKT9]", "log2 fold change of degron read counts", 1.32),
]
